- Test Name: In vitro inhibition of human platelet aggregation induced by alpha-thrombin (at a concentration of 0.15 nM)
Mark criterion met only when IC50 stays strictly below 5 µM. Values equal to the cut-off are criterion not met.

Please check: IC50 for COc1ccc(C[C@H](NC(=O)Nc2ccc3c(CN4CCCCC4)cn(Cc4ccccc4C)c3c2)C(=O)N[C@@H](CCCNC(=N)N)C(=O)NCCCc2ccccc2)cc1 , strictly under 5 µM or not?
criterion met

Please check: IC50 for CCN(CC)Cc1cn(Cc2ccc(F)cc2)c2cc(NC(=O)N[C@@H](Cc3ccc(OC)cc3)C(=O)N[C@@H](CCCNC(=N)N)C(=O)NCC3CCCCC3)ccc12 , strictly under 5 µM or not?
criterion not met

Quick check: IC50 of Cc1ccccc1Cn1cc(CN2CCCC2)c2ccc(NC(=O)N[C@@H](Cc3ccc(C#N)cc3)C(=O)N[C@@H](CCCNC(=N)N)C(=O)NCc3ccccc3)cc21 under 5 µM?
criterion met

Given the entry COc1ccc(C[C@H](NC(=O)Nc2ccc3c(CN4CCCCC4)cn(Cc4ccc(OC(F)(F)F)cc4)c3c2)C(=O)N[C@@H](CCCNC(=N)N)C(=O)NCC2CCCCC2)cc1 , would its reported IC50 be below 5 µM?
criterion not met

Problem: For the compound CCN(CC)Cc1cn(Cc2cccc(C)c2)c2cc(NC(=O)N[C@@H](Cc3ccc(OC)cc3)C(=O)N[C@@H](CCCNC(=N)N)C(=O)NCCCc3ccccc3)ccc12 , is IC50 under 5 µM?
criterion met

Input NCCC(NC(=O)[C@H](Cc1ccc(F)c(F)c1)NC(=O)Nc1ccc2c(CN3CCCC3)cn(Cc3c(Cl)cccc3Cl)c2c1)C(=O)NCc1ccccc1 (stereo partly specified) ; condition: IC50 strictly below 5 µM. Does it hold?
criterion met

###

- Study Target: Proteinase-activated receptor 1 (Homo sapiens)
- Sequence (P25116 whole entry): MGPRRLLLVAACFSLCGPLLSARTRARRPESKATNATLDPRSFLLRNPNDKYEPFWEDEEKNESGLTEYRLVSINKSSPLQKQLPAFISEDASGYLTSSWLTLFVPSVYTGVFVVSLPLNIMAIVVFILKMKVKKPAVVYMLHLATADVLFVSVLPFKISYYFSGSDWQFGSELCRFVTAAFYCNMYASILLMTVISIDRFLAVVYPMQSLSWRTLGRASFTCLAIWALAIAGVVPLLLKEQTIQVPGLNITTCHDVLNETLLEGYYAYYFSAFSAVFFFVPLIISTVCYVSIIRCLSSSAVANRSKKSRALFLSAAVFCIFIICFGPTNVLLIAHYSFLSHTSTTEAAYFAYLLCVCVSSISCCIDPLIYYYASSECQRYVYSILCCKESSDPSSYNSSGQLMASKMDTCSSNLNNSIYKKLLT
- Test Name: In vitro inhibition of human platelet aggregation induced by alpha-thrombin (at a concentration of 0.15 nM)
Readout Kind: pIC50
When answering, recall that pIC50 equals minus log10 of the concentration in mol/L, and write that number alone.

COc1ccc(C[C@H](NC(=O)Nc2ccc3c(CN4CCCC4)cn(Cc4c(Cl)cccc4Cl)c3c2)C(=O)N[C@@H](CCCN=C(N)N)C(=O)NCc2ccccc2)cc1 yielded pIC50 of 6.05

The measured pIC50 associated with NC(N)=NCCCC(NC(=O)C(Cc1ccc([N+](=O)[O-])cc1)NC(=O)Nc1ccc2c(CN3CCCC3)cn(Cc3ccc(F)cc3)c2c1)C(=O)NCc1ccccc1 (configuration not stated) reads 5.21

###

- Test Name: In vitro inhibition of human platelet aggregation induced by alpha-thrombin (at a concentration of 0.15 nM)
Readout Kind: IC50 (nM)
# value in nM; strip the unit string

Summary for this compound, CCN(CC)Cc1cn(Cc2ccccc2C)c2cc(NC(=O)N[C@@H](Cc3ccc(OC)cc3)C(=O)N[C@@H](CCCNC(=N)N)C(=O)NCCCc3ccccc3)ccc12 : IC50 is 3000

Recorded result, O=C(Nc1ccc2c(CN3CCCC3)cn(Cc3c(Cl)cccc3Cl)c2c1)N[C@@H](Cc1ccc(F)c(F)c1)C(=O)NC(Cc1cnc[nH]1)C(=O)NCc1ccccc1 (stereo not given in full) , IC50: 460

Entry N=C(N)NCCC[C@H](NC(=O)[C@H](Cc1ccc(F)c(F)c1)NC(=O)Nc1ccc2c(CN3CCCC3)cn(Cc3c(Cl)cccc3Cl)c2c1)C(=O)NCc1ccccc1 — recorded IC50 = 570

The compound COC(=O)c1ccc(Cn2cc(CN3CCCC3)c3ccc(NC(=O)N[C@@H](Cc4ccc(OC)cc4)C(=O)N[C@@H](CCCNC(=N)N)C(=O)NCC4CCCCC4)cc32)cc1 showed IC50 equal to 38700

Entry NCCCC[C@H](NC(=O)[C@H](Cc1ccc(F)c(F)c1)NC(=O)Nc1ccc2c(CN3CCCC3)cn(Cc3c(Cl)cccc3Cl)c2c1)C(=O)NCc1ccccc1 , IC50 reported as 700

###

Would you kindly list IC50 for each of these compounds?
- Test Name: In vitro inhibition of human platelet aggregation induced by alpha-thrombin (at a concentration of 0.15 nM)
A number alone suffices; assume µM.

The reported value for COc1ccc(C[C@H](NC(=O)Nc2ccc3c(CN4CCCC4)cn(Cc4ccc(F)cc4)c3c2)C(=O)N[C@@H](CCCNC(=N)N)C(=O)NCCCc2ccccc2)cc1 in terms of IC50 is 8.5

Note to self: IC50 recorded for COc1ccc(C[C@H](NC(=O)Nc2ccc3c(CN4CCCC4)cn(Cc4ccccc4Cl)c3c2)C(=O)N[C@@H](CCCNC(=N)N)C(=O)NCCCc2ccccc2)cc1 was 2.6

Field IC50 (entry COc1ccc(C[C@H](NC(=O)Nc2ccc3c(CN4CCCCC4)cn(Cc4cccc(C)c4)c3c2)C(=O)N[C@@H](CCCNC(=N)N)C(=O)NCC2CCCCC2)cc1 ) reads 11.7

Input COc1ccc(C[C@H](NC(=O)Nc2ccc3c(CN4CCCC4)cn(Cc4ccc(F)cc4)c3c2)C(=O)N[C@@H](CCCNC(=N)N)C(=O)NCC2CCCCC2)cc1 . Output IC50: 4.4

The measured IC50 associated with COc1ccc(C[C@H](NC(=O)Nc2ccc3c(CN4CCCC4)cn(Cc4ccc(F)cc4)c3c2)C(=O)N[C@@H](CCCNC(=N)N)C(=O)NCc2ccccc2)cc1 reads 2.32

###

- Test Name: In vitro inhibition of human platelet aggregation induced by SFLLRN-NH2 (at a concentration of 2 uM)
Readout Kind: pIC50
Please keep in mind that pIC50 is minus log10 of the molar concentration; only the number is needed.

The molecule listed as NCCC[C@H](NC(=O)[C@H](Cc1ccc(F)c(F)c1)NC(=O)Nc1ccc2c(CN3CCCC3)cn(Cc3c(Cl)cccc3Cl)c2c1)C(=O)NCc1ccccc1 shows pIC50 equal to 7.00

Kindly note the recorded pIC50 for COc1ccc(C[C@H](NC(=O)Nc2ccc3c(CN4CCCC4)cn(Cc4ccc(OC(F)(F)F)cc4)c3c2)C(=O)N[C@@H](CCCNC(=N)N)C(=O)NCC2CCCCC2)cc1 , which is 5.32

// recorded pIC50 for COc1ccc(C[C@H](NC(=O)Nc2ccc3c(CN4CCC4)cn(Cc4ccc(F)cc4)c3c2)C(=O)N[C@@H](CCCNC(=N)N)C(=O)NCc2ccccc2)cc1 : 6.40

Value of pIC50 reported for the molecule Cc1ccccc1Cn1cc(CN2CCCC2)c2ccc(NC(=O)N[C@@H](Cc3ccc(C#N)cc3)C(=O)N[C@@H](CCCNC(=N)N)C(=O)NCc3ccccc3)cc21 is 6.22

Measured pIC50 of NCC(NC(=O)[C@H](Cc1ccc(F)c(F)c1)NC(=O)Nc1ccc2c(CN3CCCC3)cn(Cc3c(Cl)cccc3Cl)c2c1)C(=O)NCc1ccccc1 (some centres not stated) : 6.30

Kindly note the recorded pIC50 for NC(=O)NCCCC(NC(=O)[C@H](Cc1ccc(F)c(F)c1)NC(=O)Nc1ccc2c(CN3CCCC3)cn(Cc3c(Cl)cccc3Cl)c2c1)C(=O)NCc1ccccc1 (some centres not stated) , which is 6.52

So for COc1ccc(C[C@H](NC(=O)Nc2ccc3c(CN4CCCCC4)cn(Cc4ccc(F)cc4)c3c2)C(=O)N[C@@H](CCCNC(=N)N)C(=O)NCC2CCCCC2)cc1 , the logged pIC50 turned out to be 6.00

The reported value for COc1ccc(C[C@H](NC(=O)Nc2ccc3c(CN4CCCC4)cn(Cc4ccccc4Cl)c3c2)C(=O)N[C@@H](CCCNC(=N)N)C(=O)NCCCc2ccccc2)cc1 in terms of pIC50 is 6.85

Item: NCCCC[C@H](NC(=O)[C@H](Cc1ccc(F)c(F)c1)NC(=O)Nc1ccc2c(CN3CCCC3)cn(Cc3c(Cl)cccc3Cl)c2c1)C(=O)NCc1ccccc1 | pIC50: 7.00

Measured pIC50 of COc1ccc(C[C@H](NC(=O)Nc2ccc3c(CN4CCCCC4)cn(Cc4ccccc4C)c3c2)C(=O)N[C@@H](CCCNC(=N)N)C(=O)NCCCc2ccccc2)cc1 : 6.51

pIC50 recorded for this molecule, NCCC(NC(=O)[C@H](Cc1ccc(F)c(F)c1)NC(=O)Nc1ccc2c(CN3CCCC3)cn(Cc3c(Cl)cccc3Cl)c2c1)C(=O)NCc1ccccc1 (some centres not stated) , is 6.80

pIC50 measured on COc1ccc(C[C@H](NC(=O)Nc2ccc3c(CN4CCCC4)cn(Cc4ccc(F)cc4)c3c2)C(=O)N[C@@H](CCCNC(=N)N)C(=O)NCCCc2ccccc2)cc1 = 6.22

// field: pIC50; key: N#Cc1ccc(C[C@H](NC(=O)Nc2ccc3c(CN4CCCC4)cn(Cc4c(Cl)cccc4Cl)c3c2)C(=O)N[C@@H](CCCNC(=N)N)C(=O)NCc2ccccc2)cc1 ; value = 7.15

pIC50 measured on CCN(CC)Cc1cn(Cc2ccc(F)cc2)c2cc(NC(=O)N[C@@H](Cc3ccc(OC)cc3)C(=O)N[C@@H](CCCNC(=N)N)C(=O)NCC3CCCCC3)ccc12 = 6.05

Record COc1ccc(C[C@H](NC(=O)Nc2ccc3c(CN4CCCC4)cn(Cc4ccc(F)cc4)c3c2)C(=O)N[C@@H](CCCNC(=N)N)C(=O)NCc2ccccc2)cc1 . Reported pIC50: 6.57

# pIC50 (molecule: O=C(Nc1ccc2c(CN3CCCC3)cn(Cc3c(Cl)cccc3Cl)c2c1)N[C@@H](Cc1ccc(F)c(F)c1)C(=O)NC(Cc1cnc[nH]1)C(=O)NCc1ccccc1 (some centres not stated) ) is 6.70

Record CSCCC(NC(=O)[C@H](Cc1ccc(F)c(F)c1)NC(=O)Nc1ccc2c(CN3CCCC3)cn(Cc3c(Cl)cccc3Cl)c2c1)C(=O)NCc1ccccc1 (some centres not stated) , field pIC50: 6.40

Form field pIC50, entry CCN(CC)Cc1cn(Cc2cccc(C)c2)c2cc(NC(=O)N[C@@H](Cc3ccc(OC)cc3)C(=O)N[C@@H](CCCNC(=N)N)C(=O)NCCCc3ccccc3)ccc12 : 6.68

Lab note: measured pIC50 of NC(=O)CCC(NC(=O)[C@H](Cc1ccc(F)c(F)c1)NC(=O)Nc1ccc2c(CN3CCCC3)cn(Cc3c(Cl)cccc3Cl)c2c1)C(=O)NCc1ccccc1 (some centres not stated) was 5.70

Form: molecule = COc1ccc(C[C@H](NC(=O)Nc2ccc3c(CN4CCCCC4)cn(Cc4cccc(C)c4)c3c2)C(=O)N[C@@H](CCCNC(=N)N)C(=O)NCC2CCCCC2)cc1 ; pIC50 = 6.05

molecule COc1ccc(C[C@H](NC(=O)Nc2ccc3c(CN4CCCC4)cn(Cc4ccccc4C)c3c2)C(=O)N[C@@H](CCCNC(=N)N)C(=O)NCCCc2ccccc2)cc1 , pIC50 observed: 6.70

The molecule listed as CCN(CC)Cc1cn(Cc2ccccc2C)c2cc(NC(=O)N[C@@H](Cc3ccc(OC)cc3)C(=O)N[C@@H](CCCNC(=N)N)C(=O)NCCCc3ccccc3)ccc12 shows pIC50 equal to 6.64
